Tested on: Caco-2 cell monolayer
assay-summary: Arginine absorption assay (transport across Caco-2 cell monolayer)
Assay type: cell-based, human
condition-notes: compound 1 μM
measured-quantity: Percentage (arginine transport, control = 100)

1. CC(C)(O)[C@@H]1CC[C@](C)([C@H]2[C@@H](O)C[C@@]3(C)[C@@H]4C[C@H](O[C@@H]5O[C@H](CO)[C@@H](O)[C@H](O)[C@H]5O)[C@H]5C(C)(C)[C@@H](O[C@@H]6OC[C@@H](O)[C@H](O)[C@H]6O[C@@H]6O[C@H](CO)[C@@H](O)[C@H](O)[C@H]6O)CC[C@@]56C[C@@]46CC[C@]23C)O1 [AS6, astragaloside VI] :: 127.22%
2. CC(C)(O)[C@@H]1CC[C@](C)([C@H]2[C@@H](O)C[C@@]3(C)[C@@H]4C[C@H](O)[C@H]5C(C)(C)[C@@H](O[C@@H]6OC[C@@H](O)[C@H](O)[C@H]6O[C@@H]6O[C@H](CO)[C@@H](O)[C@H](O)[C@H]6O)CC[C@@]56C[C@@]46CC[C@]23C)O1 [AS3, astragaloside III] :: 148.18%
3. CC(C)(O)C1CC[C@](C)(C2[C@@H](O)C[C@@]3(C)C4C[C@H](OC5OC(CO)C(O)C(O)C5O)C5C(C)(C)[C@@H](O)CCC56CC46CC[C@]23C)O1 (stereo partly drawn) :: 162.06%
4. CC(=O)O[C@@H]1[C@@H](O)[C@H](O[C@H]2CC[C@]34C[C@]35CC[C@]3(C)[C@@H]([C@@]6(C)CC[C@@H](C(C)(C)O)O6)[C@@H](O)C[C@@]3(C)[C@@H]5C[C@H](O[C@@H]3O[C@H](CO)[C@@H](O)[C@H](O)[C@H]3O)[C@H]4C2(C)C)OC[C@H]1O [IsoAS2, isoastragaloside II] :: 118.40%
5. CC(C)(O)[C@@H]1CC[C@](C)([C@H]2[C@@H](O)C[C@@]3(C)[C@@H]4C[C@H](O[C@@H]5O[C@H](CO)[C@@H](O)[C@H](O)[C@H]5O)[C@H]5C(C)(C)[C@@H](O[C@@H]6OC[C@@H](O)[C@H](O)[C@H]6O)CC[C@@]56C[C@@]46CC[C@]23C)O1 [AS4, astragaloside IV] :: 161.19%
6. CC(=O)O[C@H]1[C@H](O[C@H]2CC[C@]34C[C@]35CC[C@]3(C)[C@@H]([C@@]6(C)CC[C@@H](C(C)(C)O)O6)[C@@H](O)C[C@@]3(C)[C@@H]5C[C@H](O[C@@H]3O[C@H](CO)[C@@H](O)[C@H](O)[C@H]3O)[C@H]4C2(C)C)OC[C@@H](OC(C)=O)[C@@H]1O [IsoAS1, isoastragaloside I] :: 135.41%

Values compiled from patent US8197860B2.
